Data provenance is ChEMBL document CHEMBL4145688.

Assay: Permeability from apical to basolateral side in human Caco2 cells
Type: ADME, cell-based
Details: Caco-2

[
  {
    "query_smiles": "CCS(=O)(=O)c1ccc(CC(=O)Nc2cc(-c3cc(C#N)cnc3OCC(F)(F)F)cs2)cc1",
    "permeability": "Impermeable"
  },
  {
    "query_smiles": "CCS(=O)(=O)c1ccc(CC(=O)Nc2cc(-c3cccnc3OCc3ccc(OC(F)(F)F)cc3)cs2)cc1",
    "permeability": "Impermeable"
  },
  {
    "query_smiles": "CCS(=O)(=O)c1ccc(CC(=O)Nc2cc(-c3cccnc3Oc3ccc(OC(F)(F)F)cc3)cs2)cc1",
    "permeability": "Impermeable"
  },
  {
    "query_smiles": "CCS(=O)(=O)c1ccc(CC(=O)Nc2cc(-c3cc(C#N)cnc3OC)cs2)cc1",
    "permeability": "2.6 ×10⁻⁶ cm/s"
  }
]

---

Test: Efflux ratio of permeability in human Caco2 cells
Type: ADME, cell-based
Conditions: Caco-2
readout_kind: efflux ratio
Answers are plain numbers.

[
  {
    "query_smiles": "CCS(=O)(=O)c1ccc(CC(=O)Nc2cc(-c3cc(C#N)ccc3OC)cs2)cc1",
    "efflux ratio": 7.6
  },
  {
    "query_smiles": "CNS(=O)(=O)c1ccc(CC(=O)Nc2cc(-c3cc(C#N)cnc3OC)cs2)cc1",
    "efflux ratio": 40
  }
]

Next up:
Lab book: efflux ratio of CCS(=O)(=O)c1ccc(CC(=O)Nc2cc(-c3cc(C#N)cc(F)c3OC)cs2)cc1 noted as 3.9

---

Test: Intrinsic clearance in rat hepatocytes assessed per million cells
Assay type: ADME, cell-based, Hepatocyte
Settings: read-out: CLH
Exercise: state measured hepatocyte CLint for each of the molecules provided.

Please review the following examples before continuing.
[
  {
    "query_smiles": "CCS(=O)(=O)c1ccc(CC(=O)Nc2cc(-c3cccnc3OCc3ccc(C(=O)OC)cc3)cs2)cc1",
    "readout_kind": "hepatocyte CLint",
    "measured": "> 300 µL/min/1e6 cells"
  },
  {
    "query_smiles": "CCS(=O)(=O)c1ccc(CC(=O)Nc2cc(-c3cccnc3OCc3cccc(C#N)c3)cs2)cc1",
    "readout_kind": "hepatocyte CLint",
    "measured": "281 µL/min/1e6 cells"
  }
]

Your task in this section: give hepatocyte CLint for each listed record.
1. CCS(=O)(=O)c1ccc(CC(=O)Nc2cc(-c3cccnc3Oc3ccccc3)cs2)cc1
2. CCS(=O)(=O)c1ccc(CC(=O)Nc2cc(-c3cccnc3OCCc3ccccc3)cs2)cc1
3. CCS(=O)(=O)c1ccc(CC(=O)Nc2cc(-c3cc(C#N)cnc3OCC(F)(F)F)cs2)cc1

Result ::
1: 196 µL/min/1e6 cells; 2: 125 µL/min/1e6 cells; 3: 7.5 µL/min/1e6 cells

---

Exercise: state measured logD for each of the molecules provided.
Experiment: Distribution coefficient between 1-octanol and aqueous phosphate buffer, logD of the compound in pH 7.4 buffer
Assay type: physicochemical
Settings: 1-octanol/aqueous phosphate buffer
Numbers only.

[
  {
    "query_smiles": "CCS(=O)(=O)c1ccc(CC(=O)Nc2cc(-c3cccc(Cl)c3)c(C(=O)c3ccccc3Cl)s2)cc1",
    "logD": 4.5
  }
]

Lab book: logD of CCS(=O)(=O)c1ccc(CC(=O)Nc2cc(-c3cccnc3Oc3ccc(C#N)cc3)cs2)cc1 noted as 3.6

---

Target: Nuclear receptor ROR-gamma (Homo sapiens, UniProt P51449)
Sequence (P51449 whole entry): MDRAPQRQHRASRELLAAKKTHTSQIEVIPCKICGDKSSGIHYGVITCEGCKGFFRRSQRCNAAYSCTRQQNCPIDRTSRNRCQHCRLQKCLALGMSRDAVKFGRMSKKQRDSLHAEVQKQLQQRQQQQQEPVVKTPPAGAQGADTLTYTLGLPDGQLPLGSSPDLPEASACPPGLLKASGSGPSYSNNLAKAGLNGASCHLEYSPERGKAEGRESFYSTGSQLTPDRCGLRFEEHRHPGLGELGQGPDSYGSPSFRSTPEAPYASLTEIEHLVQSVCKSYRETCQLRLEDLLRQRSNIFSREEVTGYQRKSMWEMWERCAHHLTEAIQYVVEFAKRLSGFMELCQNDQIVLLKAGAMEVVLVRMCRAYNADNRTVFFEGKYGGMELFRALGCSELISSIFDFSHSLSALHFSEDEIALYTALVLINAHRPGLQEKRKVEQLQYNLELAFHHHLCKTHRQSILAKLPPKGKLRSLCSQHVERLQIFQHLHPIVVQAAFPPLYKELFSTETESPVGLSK
Test: Inverse agonist activity at RORgammat in human TH17 cells assessed as inhibition of IL17 release incubated for 4 days by HTRF assay
Assay type: cell-based
pIC50: −log10 of the molar value.
readout_kind: pIC50

Please review the following examples before continuing.
[
  {
    "query_smiles": "CCS(=O)(=O)c1ccc(CC(=O)Nc2cc(-c3cccnc3OCCCc3ccccc3)cs2)cc1",
    "pIC50": "< 5.48"
  },
  {
    "query_smiles": "CCS(=O)(=O)c1ccc(CC(=O)Nc2cc(-c3cc(C#N)ccc3OC)cs2)cc1",
    "pIC50": "< 5.48"
  },
  {
    "query_smiles": "CCS(=O)(=O)c1ccc(CC(=O)Nc2cc(-c3cc(C#N)cnc3OC)cs2)cc1",
    "pIC50": "< 5.48"
  }
]

Lab book: pIC50 of CNS(=O)(=O)c1ccc(CC(=O)Nc2cc(-c3cc(C#N)cnc3OC)cs2)cc1 noted as < 5.48

---

Molecular target: Nuclear receptor ROR-gamma (Homo sapiens)
readout_kind: IC50 (µM)
One number for each entry, in µM.

Please review the following examples before continuing.
[
  {
    "query_smiles": "CCS(=O)(=O)c1ccc(CC(=O)Nc2cc(-c3cc(C#N)cc(F)c3OC)cs2)cc1",
    "measured": 0.03
  },
  {
    "query_smiles": "CCS(=O)(=O)c1ccc(CC(=O)Nc2cc(-c3cccnc3OCc3ccc(OC(F)(F)F)cc3)cs2)cc1",
    "measured": 0.03
  }
]

Lab book: IC50 of CCS(=O)(=O)c1ccc(CC(=O)Nc2cc(-c3cccc(Cl)c3)c(C(=O)c3ccccc3Cl)s2)cc1 noted as 0.023

---

Assay: Unbound fraction in human plasma by equilibrium dialysis
Type: ADME, cell-free
Exercise: state measured fraction unbound for each of the compounds provided.

Please review the following examples before continuing.
[
  {
    "query_smiles": "CCS(=O)(=O)c1ccc(CC(=O)Nc2cc(-c3cc(C#N)cc(F)c3OC)cs2)cc1",
    "fraction unbound": "0.0017 to 0.002"
  },
  {
    "query_smiles": "CNS(=O)(=O)c1ccc(CC(=O)Nc2cc(-c3cc(C#N)cnc3OC)cs2)cc1",
    "fraction unbound": "< 0.001"
  },
  {
    "query_smiles": "CCS(=O)(=O)c1ccc(CC(=O)Nc2cc(-c3cccnc3OCc3ccc(OC(F)(F)F)cc3)cs2)cc1",
    "fraction unbound": "< 0.0002"
  },
  {
    "query_smiles": "CCS(=O)(=O)c1ccc(CC(=O)Nc2cc(-c3cccc(Cl)c3)c(C(=O)c3ccccc3Cl)s2)cc1",
    "fraction unbound": "< 0.002"
  }
]

Lab book: fraction unbound of CCS(=O)(=O)c1ccc(CC(=O)Nc2cc(-c3cccnc3Oc3ccc(OC(F)(F)F)cc3)cs2)cc1 noted as < 0.001

---

Biological target: Nuclear receptor ROR-gamma (Homo sapiens)
Exercise: state measured IC50 for each of the compounds provided.
Give bare numbers, in nM.

Please review the following examples before continuing.
[
  {
    "compound": "CCS(=O)(=O)c1ccc(CC(=O)Nc2cc(-c3cccnc3OCCCc3ccccc3)cs2)cc1",
    "measured": 17
  },
  {
    "compound": "CCS(=O)(=O)c1ccc(CC(=O)Nc2cc(-c3cccnc3OCc3ccccc3)cs2)cc1",
    "measured": 20
  },
  {
    "compound": "CCS(=O)(=O)c1ccc(C(NC(C)=O)C(=O)Nc2cc(-c3cccnc3OCc3ccc(OC(F)(F)F)cc3)cs2)cc1 (stereo not given)",
    "measured": 6
  },
  {
    "compound": "CCS(=O)(=O)c1ccc([C@H](NC(C)=O)C(=O)Nc2cc(-c3cccnc3OCc3ccc(OC(F)(F)F)cc3)cs2)cc1",
    "measured": 270
  },
  {
    "compound": "CCS(=O)(=O)c1ccc(C(NC(C)=O)C(=O)Nc2cc(-c3cc(C#N)cnc3OCC(F)(F)F)cs2)cc1 (stereo not given)",
    "measured": 7
  },
  {
    "compound": "CCS(=O)(=O)c1ccc(CC(=O)Nc2cc(-c3cc(C#N)cc(F)c3OC)cs2)cc1",
    "measured": 20
  },
  {
    "compound": "CC[S+]([O-])c1ccc(CC(=O)Nc2cc(-c3cc(C#N)cnc3OC)cs2)cc1 (stereo not given)",
    "measured": 1290
  },
  {
    "compound": "CCS(=O)(=O)c1ccc(CC(=O)Nc2cc(-c3cccnc3OCc3ccc(C(=O)OC)cc3)cs2)cc1",
    "measured": 14
  }
]

Your task in this section: give IC50 for each listed record.
1. CCS(=O)(=O)c1ccc(CC(=O)Nc2cc(-c3cccnc3OCc3ccc(OC(F)(F)F)cc3)cs2)cc1
2. CCS(=O)(=O)c1ccc(CC(=O)Nc2cc(-c3cc(C#N)ccc3OC)cs2)cc1
3. CCS(=O)(=O)c1ccc(CC(=O)Nc2cc(-c3cncnc3OC)cs2)cc1
4. CCS(=O)(=O)c1ccc(CC(=O)Nc2cc(-c3cccnc3Oc3ccc(C#N)cc3)cs2)cc1
5. CCS(=N)(=O)c1ccc(CC(=O)Nc2cc(-c3cc(C#N)ccc3OC)cs2)cc1 (stereo not given)
6. CCS(=O)(=O)c1ccc(C(NC(C)=O)C(=O)Nc2cc(-c3cccnc3OCc3ccccc3)cs2)cc1 (stereo not given)
7. CCS(=O)(=O)c1ccc(CC(=O)Nc2cc(-c3cccnc3OCc3cccc(C#N)c3)cs2)cc1

Result ::
7
20
1850
88
340
7
19
